- system: RPS6KB1 (human)
- test.summary: radiometric filter-binding kinase assay, Kinase HotSpot
- conditions.used: compound 0.5 µM; ATP 10 µM
readout.name: residual activity

{"smiles.code": "O=C1Nc2ccc(Cl)cc2/C1=C/c1cc(Cl)c(O)c(Cl)c1", "residual activity": "91%"}

Report residual activity for every entry below.
1. O=C(Nc1cccc(Nc2nccc(Nc3cccc(C(F)(F)F)c3)n2)c1)C1CC1
2. CNC(=O)c1cc(Oc2ccc(NC(=O)Nc3ccc(Cl)c(C(F)(F)F)c3)cc2)ccn1
3. CC#CC(=O)Nc1cc2c(Nc3ccc(F)c(Cl)c3)ncnc2cn1

(A)
["98%", "91.4%", "97.1%"]

Report residual activity for every entry below.
1. CCC(=O)Nc1ccc2ncnc(Nc3cccc(Br)c3)c2c1
2. Nc1ccc2ncnc(NCCc3ccc(Oc4ccccc4)cc3)c2c1
3. Nc1ncnc2[nH]nc(Nc3ccc(F)cc3)c12
4. COc1ccc2c(c[n+](C)c3c4cc5c(cc4ccc23)OCO5)c1OC

(A)
91.2%
99.5%
94.3%
99.8%

Report residual activity for every entry below.
1. O=c1cc(N2CCOCC2)oc2c1ccc1ccccc12
2. Nc1cccc(-c2cc3c(Oc4cccc(O)c4)ncnc3[nH]2)c1
3. Cc1ccc(Nc2nccc(N(C)c3ccc4c(C)n(C)nc4c3)n2)cc1S(N)(=O)=O
4. Cc1ccc(S(=O)(=O)/C=C/C#N)cc1
5. CNc1cc2c(Nc3cccc(Br)c3)ncnc2cn1
6. CCOC(=O)c1c(C)[nH]c(/C=C2\C(=O)Nc3ccccc32)c1C
7. c1ccc(-c2n[nH]c3c2oc2ccccc23)cc1

(A)
99.3%
95.3%
96%
105%
97.4%
85.7%
99.9%

* * *

- system: ALK (human) (UniProt Q9UM73)
- Sequence (Q9UM73 whole entry, looked up): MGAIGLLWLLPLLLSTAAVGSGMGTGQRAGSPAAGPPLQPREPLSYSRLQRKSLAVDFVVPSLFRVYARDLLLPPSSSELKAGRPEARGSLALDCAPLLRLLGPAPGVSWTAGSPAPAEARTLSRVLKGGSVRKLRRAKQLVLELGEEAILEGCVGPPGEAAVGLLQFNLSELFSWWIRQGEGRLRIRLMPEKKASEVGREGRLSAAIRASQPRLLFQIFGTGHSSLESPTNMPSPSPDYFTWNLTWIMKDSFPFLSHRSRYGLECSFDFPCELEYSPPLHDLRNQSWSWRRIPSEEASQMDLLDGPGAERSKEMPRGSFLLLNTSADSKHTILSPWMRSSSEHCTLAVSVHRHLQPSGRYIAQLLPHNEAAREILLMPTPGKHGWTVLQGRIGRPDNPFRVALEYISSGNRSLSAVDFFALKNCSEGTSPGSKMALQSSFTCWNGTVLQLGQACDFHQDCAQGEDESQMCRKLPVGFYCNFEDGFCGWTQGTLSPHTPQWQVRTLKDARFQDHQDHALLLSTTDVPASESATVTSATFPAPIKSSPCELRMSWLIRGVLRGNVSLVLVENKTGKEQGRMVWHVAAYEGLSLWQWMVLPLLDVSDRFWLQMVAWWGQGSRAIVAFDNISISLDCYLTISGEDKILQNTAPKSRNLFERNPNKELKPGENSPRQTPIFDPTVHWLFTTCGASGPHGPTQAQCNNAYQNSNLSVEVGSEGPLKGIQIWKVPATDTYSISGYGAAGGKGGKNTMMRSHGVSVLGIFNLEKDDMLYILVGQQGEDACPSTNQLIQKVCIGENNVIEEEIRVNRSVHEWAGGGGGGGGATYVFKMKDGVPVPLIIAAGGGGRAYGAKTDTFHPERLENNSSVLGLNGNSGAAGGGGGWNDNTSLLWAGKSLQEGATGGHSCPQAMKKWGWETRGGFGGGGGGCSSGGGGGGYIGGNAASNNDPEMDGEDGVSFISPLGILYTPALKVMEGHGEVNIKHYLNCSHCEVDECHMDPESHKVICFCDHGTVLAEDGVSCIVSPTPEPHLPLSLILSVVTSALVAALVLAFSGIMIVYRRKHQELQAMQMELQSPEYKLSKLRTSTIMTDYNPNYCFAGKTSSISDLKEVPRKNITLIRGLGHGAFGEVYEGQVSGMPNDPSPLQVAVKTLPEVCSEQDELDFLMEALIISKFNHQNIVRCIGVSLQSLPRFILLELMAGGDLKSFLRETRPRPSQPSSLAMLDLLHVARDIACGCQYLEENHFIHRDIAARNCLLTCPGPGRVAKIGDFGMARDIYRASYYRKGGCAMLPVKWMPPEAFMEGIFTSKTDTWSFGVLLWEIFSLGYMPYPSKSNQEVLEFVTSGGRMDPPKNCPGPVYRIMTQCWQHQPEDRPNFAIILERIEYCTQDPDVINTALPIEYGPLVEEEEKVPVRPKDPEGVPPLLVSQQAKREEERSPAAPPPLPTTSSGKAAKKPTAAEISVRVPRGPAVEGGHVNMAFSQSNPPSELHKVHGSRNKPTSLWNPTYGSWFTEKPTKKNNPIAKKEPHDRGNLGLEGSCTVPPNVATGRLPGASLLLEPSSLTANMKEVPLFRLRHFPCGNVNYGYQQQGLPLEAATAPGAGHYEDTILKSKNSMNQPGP
- test.summary: radiometric filter-binding kinase assay, Kinase HotSpot
- conditions.used: compound 0.5 µM; ATP 10 µM
I'd appreciate it if you could supply residual activity values for the items below.
Answers are plain numbers, in %.

{"compound": "Cc1ccc(Nc2nccc(N(C)c3ccc4c(C)n(C)nc4c3)n2)cc1S(N)(=O)=O", "system": "ALK (human) (UniProt Q9UM73)", "readout.name": "residual activity", "measured.value": 85.3}
{"compound": "CO[C@H]1CC2CC[C@@H](C)[C@@](O)(O2)C(=O)C(=O)N2CCCC[C@H]2C(=O)OC([C@H](C)C[C@@H]2CC[C@@H](O)[C@H](OC)C2)CC(=O)[C@H](C)/C=C(\\C)[C@@H](O)[C@@H](OC)C(=O)[C@H](C)C[C@H](C)/C=C/C=C/C=C/1C (stereo not given in full)", "system": "ALK (human) (UniProt Q9UM73)", "readout.name": "residual activity", "measured.value": 115}

Report residual activity for every entry below.
1. CNc1cc2c(Nc3cccc(Br)c3)ncnc2cn1
2. CC(=O)c1ccc(N2CCOCC2)cc1O
3. CC(C)N(CCC(=O)c1ccc2ccccc2c1)Cc1ccccc1
4. CCN(CC)C(=O)c1ccc(Nc2nc(OCC3CCCCC3)c3nc[nH]c3n2)cc1
5. N#C/C(=C(/N)Sc1ccc(N)cc1)c1ccccc1C(F)(F)F
6. CCN(CC)CCNC(=O)c1c(C)[nH]c(/C=C2\C(=O)Nc3ccc(Cl)cc32)c1C

(A)
1: 82; 2: 106; 3: 88.9; 4: 74.9; 5: 100; 6: 3.45

Report residual activity for every entry below.
1. Cc1[nH]c(/C=C2\C(=O)Nc3ccc(S(=O)(=O)N(C)c4cccc(Cl)c4)cc32)c(C)c1C(=O)N1CCN(C)CC1
2. COc1ccc2c(c[n+](C)c3c4cc5c(cc4ccc23)OCO5)c1OC
3. CNC(=O)c1cc(Oc2ccc(NC(=O)Nc3ccc(Cl)c(C(F)(F)F)c3)cc2)ccn1

(A)
1: 77.7; 2: 105; 3: 97.3

Report residual activity for every entry below.
1. O=C1NC(=O)C(c2cn(CCCn3ccnc3)c3ccccc23)=C1Nc1ccccc1
2. O=C1NC(=O)/C(=C/c2ccc3c(c2)OC(F)(F)O3)S1

(A)
1. 97.7
2. 83.4

Report residual activity for every entry below.
1. CC#CC(=O)Nc1cc2c(Nc3ccc(F)c(Cl)c3)ncnc2cn1
2. Oc1cccc(-c2nc(N3CCOCC3)c3oc4ncccc4c3n2)c1

(A)
1. 103
2. 90.5

* * *

- system: MAPK13 (human) (UniProt O15264)
- Sequence (O15264 whole entry, looked up): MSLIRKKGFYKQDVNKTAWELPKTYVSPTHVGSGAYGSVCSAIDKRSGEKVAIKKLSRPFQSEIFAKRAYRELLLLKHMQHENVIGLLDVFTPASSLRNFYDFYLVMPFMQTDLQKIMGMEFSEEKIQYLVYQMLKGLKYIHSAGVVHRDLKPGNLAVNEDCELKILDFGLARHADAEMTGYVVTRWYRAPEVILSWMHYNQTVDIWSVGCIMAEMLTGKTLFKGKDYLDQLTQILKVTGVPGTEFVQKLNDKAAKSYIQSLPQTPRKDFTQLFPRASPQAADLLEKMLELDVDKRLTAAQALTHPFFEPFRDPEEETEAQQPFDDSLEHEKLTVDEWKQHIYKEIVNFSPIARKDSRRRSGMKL
- test.summary: radiometric filter-binding kinase assay, Kinase HotSpot
- conditions.used: compound 0.5 µM; ATP 10 µM
readout.name: residual activity (%)
Give bare numbers, in %.

Worked examples, 2 compounds total:
{"smiles.code": "O=C1Nc2ccc(Cl)cc2/C1=C/c1cc(Cl)c(O)c(Cl)c1", "output.unit": "%", "measured.value": 97.8}
{"smiles.code": "CCOC(=O)c1c(C)[nH]c(/C=C2\\C(=O)Nc3ccccc32)c1C", "output.unit": "%", "measured.value": 98.3}

Then there is this compound:
Field residual activity (system: MAPK13 (human) (UniProt O15264)) for entry c1ccc(-c2n[nH]c3c2oc2ccccc23)cc1 = 109

* * *

I'd appreciate it if you could supply residual activity values for the items below.
- system: IRAK4 (human)
- test.summary: radiometric filter-binding kinase assay, Kinase HotSpot
- conditions.used: compound 0.5 µM; ATP 10 µM
Give bare numbers, in %.

Worked examples, 4 compounds total:
{"smiles.code": "N#CC(C#N)=C(N)/C(C#N)=C/c1ccc(O)cc1", "output.unit": "%", "measured.value": 92.6}
{"smiles.code": "CCN(CC)C(=O)c1ccc(Nc2nc(OCC3CCCCC3)c3nc[nH]c3n2)cc1", "output.unit": "%", "measured.value": 92.4}
{"smiles.code": "N#C/C(=C(/N)Sc1ccc(N)cc1)c1ccccc1C(F)(F)F", "output.unit": "%", "measured.value": 89.8}
{"smiles.code": "O=C1Nc2ccc(Cl)cc2/C1=C/c1cc(Cl)c(O)c(Cl)c1", "output.unit": "%", "measured.value": 101}

Report residual activity for every entry below.
1. COc1cc2ncnc(Nc3cccc(Cl)c3)c2cc1OC
2. Cc1[nH]c(/C=C2\C(=O)Nc3ccc(S(=O)(=O)N(C)c4cccc(Cl)c4)cc32)c(C)c1C(=O)N1CCN(C)CC1
3. Nc1cccc(-c2cc3c(Oc4cccc(O)c4)ncnc3[nH]2)c1
4. CC(=O)c1ccc(N2CCOCC2)cc1O
5. O=C1NC(=O)c2c1c1c3ccccc3n3c1c1c2c2ccccc2n1C1CCC3O1
6. CCN(CC)CCNC(=O)c1c(C)[nH]c(/C=C2\C(=O)Nc3ccc(Cl)cc32)c1C
7. O=C(Nc1cccc(Nc2nccc(Nc3cccc(C(F)(F)F)c3)n2)c1)C1CC1

(A)
[77.7, 65.5, 88.2, 120, 14, 22.7, 146]

Report residual activity for every entry below.
1. CC(C)N(CCC(=O)c1ccc2ccccc2c1)Cc1ccccc1
2. Oc1cccc(-c2nc(N3CCOCC3)c3oc4ncccc4c3n2)c1

(A)
1: 103; 2: 104

Field residual activity (system: IRAK4 (human)) for entry CNC(=O)c1cc(Oc2ccc(NC(=O)Nc3ccc(Cl)c(C(F)(F)F)c3)cc2)ccn1 = 99.6

* * *

- system: CDK6 CCND3 (human) (UniProt P30281+Q00534)
- Sequence (P30281 whole entry, looked up): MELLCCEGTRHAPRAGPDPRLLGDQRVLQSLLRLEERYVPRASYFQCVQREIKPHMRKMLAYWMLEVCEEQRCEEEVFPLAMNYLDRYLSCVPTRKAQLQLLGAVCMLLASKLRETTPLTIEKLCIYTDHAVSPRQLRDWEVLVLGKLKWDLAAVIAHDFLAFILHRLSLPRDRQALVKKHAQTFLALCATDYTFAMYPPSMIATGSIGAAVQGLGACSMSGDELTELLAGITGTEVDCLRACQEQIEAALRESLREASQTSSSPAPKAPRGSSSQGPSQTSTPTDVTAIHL
- Sequence (Q00534 whole entry, looked up): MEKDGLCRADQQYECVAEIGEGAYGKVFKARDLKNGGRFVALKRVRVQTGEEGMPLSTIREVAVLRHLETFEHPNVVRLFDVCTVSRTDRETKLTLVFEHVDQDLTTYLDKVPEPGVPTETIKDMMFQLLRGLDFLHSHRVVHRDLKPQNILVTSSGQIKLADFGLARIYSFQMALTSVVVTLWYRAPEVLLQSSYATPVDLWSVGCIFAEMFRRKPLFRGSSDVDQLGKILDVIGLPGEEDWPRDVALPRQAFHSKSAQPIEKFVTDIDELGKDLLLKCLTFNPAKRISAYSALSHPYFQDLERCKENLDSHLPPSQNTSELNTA
- test.summary: radiometric filter-binding kinase assay, Kinase HotSpot
- conditions.used: compound 0.5 µM; ATP 10 µM
readout.name: residual activity (%)
Give bare numbers, in %.

Worked examples, 3 compounds total:
{"smiles.code": "c1ccc(-c2n[nH]c3c2oc2ccccc23)cc1", "output.unit": "%", "residual activity": 91.6}
{"smiles.code": "Nc1ccc2ncnc(NCCc3ccc(Oc4ccccc4)cc3)c2c1", "output.unit": "%", "residual activity": 100}
{"smiles.code": "CCCC(=O)Oc1ccc2[nH]c(C(=O)c3cc4ccccc4[nH]3)cc2c1", "output.unit": "%", "residual activity": 92.5}

Then there is this compound:
Documented residual activity of O=C1NC(=O)C(c2cn(CCCn3ccnc3)c3ccccc23)=C1Nc1ccccc1 : 104

* * *

I'd appreciate it if you could supply residual activity values for the items below.
- system: UniProt:P49137
- Sequence (P49137 whole entry, looked up): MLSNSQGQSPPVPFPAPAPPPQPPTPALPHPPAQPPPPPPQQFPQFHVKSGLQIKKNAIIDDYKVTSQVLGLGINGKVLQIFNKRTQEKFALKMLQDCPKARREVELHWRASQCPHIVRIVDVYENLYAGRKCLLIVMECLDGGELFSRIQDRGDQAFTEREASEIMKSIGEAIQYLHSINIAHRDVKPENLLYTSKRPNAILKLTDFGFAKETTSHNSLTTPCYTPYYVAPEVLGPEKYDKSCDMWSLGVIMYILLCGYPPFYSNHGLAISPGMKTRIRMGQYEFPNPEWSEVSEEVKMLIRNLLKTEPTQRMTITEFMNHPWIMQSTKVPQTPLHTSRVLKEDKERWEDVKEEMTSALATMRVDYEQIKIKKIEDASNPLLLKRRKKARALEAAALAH
- test.summary: radiometric filter-binding kinase assay, Kinase HotSpot
- conditions.used: compound 0.5 µM; ATP 10 µM
Give bare numbers, in %.

{"smiles.code": "O=S(=O)(c1cccc2cnccc12)N1CCCNCC1", "readout.name": "residual activity", "output.unit": "%", "measured.value": 101}
{"smiles.code": "COc1ccc(COc2ccc(Cc3cnc(N)nc3N)cc2OC)cc1", "readout.name": "residual activity", "output.unit": "%", "measured.value": 103}
{"smiles.code": "O=C1NC(=O)c2c1c1c3ccccc3n3c1c1c2c2ccccc2n1C1CCC3O1", "readout.name": "residual activity", "output.unit": "%", "measured.value": 99.2}

Report residual activity for every entry below.
1. CCC(=O)Nc1ccc2ncnc(Nc3cccc(Br)c3)c2c1
2. O=c1cc(N2CCOCC2)oc2c1ccc1ccccc12

(A)
[87.1, 98.3]
